Tested on: NEK1;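 also: KINOMEscan kinase panel screen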
Conditions: concentration: 1 μM,replicates: in singlicate; n = 1
parameter: %Inh (%)
Give bare numbers, in %.

Recorded results for 3 molecules are shown here.
-- ask I have this molecule here, CS(=O)(=O)Nc1ccc(-c2ccnc3[nH]ccc23)cc1 [GSK993273] , and I need its recorded %Inh.
-- reply 15

-- ask I have this molecule here, O=c1[nH]cc(-c2ccc(O)cc2)c2sc(-c3ccncc3)cc12 [GSK1033723] , and I need its recorded %Inh.
-- reply 0

-- ask I have this molecule here, CN(c1ccc2c(c1)nc(NCc1ccc(F)cc1)n2C)c1ccnc(Nc2ccc(CS(C)(=O)=O)cc2)n1.Cl [GW813244] , and I need its recorded %Inh.
-- reply 0

For each of the molecules below, note its %Inh.
1. CC(C(=O)NC1CCN(c2ccnc(Nc3ccc(F)cc3)n2)C1)c1ccc(Cl)cc1 (centres unmarked) [GSK1379713]
2. NC(=O)c1ccc(-c2cc3ncnc(SCC(=O)O)c3s2)cc1

-- reply
1: 0; 2: 0

Entry source: paper PMC5540273
